Data origin: BindingDB's records for doi:10.1046/j.1471-4159.1997.68062263.x

MEASURED TARGET: Somatostatin receptor type 5 (Rattus norvegicus)
Sequence (P30938 whole entry): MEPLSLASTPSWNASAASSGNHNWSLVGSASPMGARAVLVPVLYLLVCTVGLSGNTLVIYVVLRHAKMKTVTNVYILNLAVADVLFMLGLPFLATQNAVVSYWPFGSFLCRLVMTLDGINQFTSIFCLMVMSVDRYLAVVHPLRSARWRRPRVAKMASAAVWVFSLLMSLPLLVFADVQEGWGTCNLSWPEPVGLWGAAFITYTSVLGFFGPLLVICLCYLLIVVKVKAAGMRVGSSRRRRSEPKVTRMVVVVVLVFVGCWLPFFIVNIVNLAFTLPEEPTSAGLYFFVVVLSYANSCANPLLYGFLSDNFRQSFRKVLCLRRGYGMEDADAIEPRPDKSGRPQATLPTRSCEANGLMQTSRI
Numbered stars: 1 amine (or outer) side, 2 acyl side, 3 side chain; on linkers, the order of the positions; unused ones are H or OH. Bridge positions count the residues as written; N and C are the ends. Square brackets hold non-standard residues; d marks the D form. Peptide text beside a SMILES is read from it. ξ: configuration not given here. X1 = CC(C)NCc1ccc(C[C@@H](N[*:1])C(=O)[*:2])cc1; d1Nal = N[C@H](Cc1cccc2ccccc12)C(=O)O; Thr(3ξ) = CC(O)[C@H](N)C(=O)O; ξF = NC(Cc1ccccc1)C(=O)O; ξK = NCCCCC(N)C(=O)O; ξT = CC(O)C(N)C(=O)O
EXPERIMENTAL ENDPOINT: pKi
// pKi: -log10(molar conc.)

Take a look at these entries with their results.
C[C@H](N)C(=O)NCC(=O)N[C@@H]1CSSC[C@@H](C(=O)O)NC(=O)[C@H](CO)NC(=O)[C@@H]([C@@H](C)O)NC(=O)[C@H](Cc2ccccc2)NC(=O)[C@@H]([C@@H](C)O)NC(=O)[C@H](CCCCN)NC(=O)[C@@H](Cc2c[nH]c3ccccc23)NC(=O)[C@H](Cc2ccccc2)NC(=O)[C@@H](Cc2ccccc2)NC(=O)[C@H](CC(N)=O)NC(=O)[C@@H](CCCCN)NC1=O	8.59
C[C@@H](O)[C@H](NC(=O)[C@H](Cc1ccccc1)NC(=O)[C@@H](NC(=O)[C@H](CCCCN)NC(=O)[C@@H](Cc1c[nH]c2ccccc12)NC(=O)[C@H](Cc1ccccc1)NC(=O)[C@H](Cc1ccccc1)NC(=O)[C@H](N)Cc1ccccc1)[C@@H](C)O)C(N)=O [CAS_133073-82-2] (H-[dF]FF[dW]KTFT-NH2)	8.09
CC(C)[C@H](NC(=O)[C@H](CCCCN)NC(=O)[C@@H](Cc1c[nH]c2ccccc12)NC(=O)[C@H](Cc1ccc(O)cc1)NC(=O)[C@H](Cc1ccccc1)NC(=O)[C@@H](N)Cc1ccccc1)C(=O)N[C@@H](Cc1ccccc1)C(=O)N[C@H](Cc1cccc2ccccc12)C(N)=O [BIM 23056] (H-FFY[dW]KVF[d1Nal]-NH2)	7.49

# context switch: different compound, same pKi
Recorded pKi of CC(C)NCc1ccc(C[C@H]2NC(=O)[C@H](Cc3c[nH]c4ccccc34)NC(=O)C(Cc3ccccc3)NC(=O)C(Cc3ccccc3)NC(=O)C(CCCCN)NC(=O)[C@H](N)CSSC[C@H](C(=O)O)NC(=O)[C@@H](CO)NC(=O)[C@H](C(C)O)NC(=O)[C@@H](Cc3ccccc3)NC(=O)C(C(C)O)NC2=O)cc1 (some centres undefined) [CH-275] (H-[dC][ξK][ξF][ξF]W[X1][ξT][dF][Thr(3ξ)][dS][dC]-OH; disulfide 1-11) , please. 6.55
